Experiment: Blood drug concentration analysis (LC-MS/MS) in In Vivo Depletion Assay
Conditions: human CCR2 (hCCR2) knock-in, 057 background, mouse, whole blood, hCCR2 knock-in mice, IV 0.1 mpk compound + 10 mpk anti-cotinine antibody, 48 hours post-dose, read-out: Exposure of Compound of Formula (I) 48 hours post-dose
Counter-ions that a name gives are not always drawn.
Listed here are molecules together with their documented concentration at 48 h.

molecule: CO[C@@H]1COCC[C@@H]1N[C@@H]1CC[C@](CCCNC(=O)CCOCCOCCOCCOCCOCCOCCOCCOCCOCCOCCOCCOCCNC(=O)[C@H]2CC(=O)N(C)[C@@H]2c2cccnc2)(C(=O)N2CCc3ncc(C(F)(F)F)cc3C2)C1 [Example 1]
concentration at 48 h (ng/mL): 55.7
--
molecule: CO[C@@H]1COCC[C@@H]1N[C@@H]1CC[C@](CCCNC(=O)CCOCCOCCO[C@H]2CC[C@H](OCCNC(=O)[C@H]3CC(=O)N(C)[C@@H]3c3cccnc3)CC2)(C(=O)N2CCc3ncc(C(F)(F)F)cc3C2)C1 [Example 20, Formic acid salt]
concentration at 48 h (ng/mL): 74.6
--
molecule: CO[C@@H]1COCC[C@@H]1N[C@@H]1CC[C@@](C(=O)N2CCc3nc(CCCCOc4cccc(C(=O)NCCOCCOCCOCCOCCOCCOCCOCCOCCOCCNC(=O)[C@H]5CC(=O)N(C)[C@@H]5c5cccnc5)c4)c(C(F)(F)F)cc3C2)(C(C)C)C1 [Example 22]
concentration at 48 h (ng/mL): 15.5
--
molecule: CO[C@@H]1COCC[C@@H]1N[C@@H]1CC[C@](CCCNC(=O)[C@H]2CC[C@H](NC(=O)CCCO[C@H]3CC[C@@H](OCCNC(=O)[C@H]4CC(=O)N(C)[C@@H]4c4cccnc4)CC3)CC2)(C(=O)N2CCc3ncc(C(F)(F)F)cc3C2)C1 [Example 5]
concentration at 48 h (ng/mL): 95.4
--
molecule: CO[C@@H]1COCC[C@@H]1N[C@@H]1CC[C@@](C(=O)N2Cc3cc(C(F)(F)F)cnc3[C@@H](NC(=O)[C@H]3CC[C@H](NC(=O)CCCO[C@H]4CC[C@H](OCCNC(=O)[C@H]5CC(=O)N(C)[C@@H]5c5cccnc5)CC4)CC3)C2)(C(C)C)C1 [Example 15]
concentration at 48 h (ng/mL): 35
--
molecule: CO[C@@H]1COCC[C@@H]1N[C@@H]1CC[C@](CCCNC(=O)[C@H]2CC[C@H](NC(=O)CCCO[C@H]3CC[C@H](OCCNC(=O)[C@H]4CC(=O)N(C)[C@@H]4c4cccnc4)CC3)CC2)(C(=O)N2CCc3ncc(C(F)(F)F)cc3C2)C1 [Example 3]
concentration at 48 h (ng/mL): 31.3
--
molecule: CO[C@@H]1COCC[C@@H]1N[C@@H]1CC[C@](CCC2CCN(C(=O)[C@H]3CC[C@H](NC(=O)CCCO[C@H]4CC[C@H](OCCNC(=O)[C@H]5CC(=O)N(C)[C@@H]5c5cccnc5)CC4)CC3)CC2)(C(=O)N2CCc3ncc(C(F)(F)F)cc3C2)C1 [Example 2]
concentration at 48 h (ng/mL): 53.2
--
molecule: CO[C@@H]1COCC[C@@H]1N[C@@H]1CC[C@@](C(=O)N2Cc3cc(C(F)(F)F)cnc3[C@H](NC(=O)[C@H]3CC[C@H](NC(=O)CCCO[C@H]4CC[C@H](OCCNC(=O)[C@H]5CC(=O)N(C)[C@@H]5c5cccnc5)CC4)CC3)C2)(C(C)C)C1 [Example 14]
concentration at 48 h (ng/mL): 41.4

----------
Target: CHOK1 cells engineered to overexpress human CCR2 (Homo sapiens, UniProt P41597)
Construct: expressed in transfected cells; host or cells: CHOK1
Assay: Antibody Dependent Cellular Cytotoxicity (ADCC) Reporter Assay
Type: cell-based
Conditions: with anti-cotinine antibody (human IgG1 Fc, S239D/I332E); Jurkat FcγRIIIa NFAT-luciferase reporter cells; average if several runs; read-out: ADCC Reporter Assay pEC50 (converted)
Structures can show the parent of a compound that is named as a salt.
Known EC50 of a selection of molecules
recordedEndpoint: EC50

molecule: CO[C@@H]1COCC[C@@H]1N[C@@H]1CC[C@](CCCNC(=O)[C@H]2CC[C@@H](NC(=O)CCCO[C@H]3CC[C@@H](OCCNC(=O)[C@H]4CC(=O)N(C)[C@@H]4c4cccnc4)CC3)CC2)(C(=O)N2CCc3ncc(C(F)(F)F)cc3C2)C1 [Example 4, Formic acid salt]
reported: 0.794 nM
--
molecule: CO[C@@H]1COCC[C@@H]1N[C@@H]1CC[C@@](C(=O)N2CCc3nc(CCCCNC(=O)[C@H]4CC[C@H](NC(=O)CCCO[C@H]5CC[C@H](OCCNC(=O)[C@H]6CC(=O)N(C)[C@@H]6c6cccnc6)CC5)CC4)c(C(F)(F)F)cc3C2)(C(C)C)C1 [Example 12]
reported: 0.631 nM
--
molecule: CO[C@@H]1COCC[C@@H]1N[C@@H]1CC[C@](CCNC(=O)[C@H]2CC[C@H](NC(=O)CCCO[C@H]3CC[C@H](OCCNC(=O)[C@H]4CC(=O)N(C)[C@@H]4c4cccnc4)CC3)CC2)(C(=O)N2CCc3ncc(C(F)(F)F)cc3C2)C1 [Example 8]
reported: 1.58 nM
--
molecule: CO[C@@H]1COCC[C@@H]1N[C@@H]1CC[C@](CCCNC(=O)CCOCCOCCOCCOCCOCCOCCOCCOCCOCCOCCOCCOCCNC(=O)[C@H]2CC(=O)N(C)[C@@H]2c2cccnc2)(C(=O)N2CCc3ncc(C(F)(F)F)cc3C2)C1 [Example 1]
reported: 2.51 nM
--
molecule: CO[C@@H]1COCC[C@@H]1N[C@@H]1CC[C@@](C(=O)N2Cc3cc(C(F)(F)F)cnc3[C@@H](NC(=O)[C@H]3CC[C@H](NC(=O)CCCO[C@H]4CC[C@H](OCCNC(=O)[C@H]5CC(=O)N(C)[C@@H]5c5cccnc5)CC4)CC3)C2)(C(C)C)C1 [Example 15]
reported: 0.2 nM
--
molecule: CO[C@@H]1COCC[C@@H]1N(CCCNC(=O)[C@H]1CC[C@H](NC(=O)CCCO[C@H]2CC[C@H](OCCNC(=O)[C@H]3CC(=O)N(C)[C@@H]3c3cccnc3)CC2)CC1)[C@@H]1CC[C@@](C(=O)N2CCc3ncc(C(F)(F)F)cc3C2)(C(C)C)C1 [Example 13]
reported: 0.794 nM
--
molecule: CO[C@@H]1COCC[C@@H]1N[C@@H]1CC[C@](CCCNC(=O)CCOCCOCCO[C@H]2CC[C@H](OCCNC(=O)[C@H]3CC(=O)N(C)[C@@H]3c3cccnc3)CC2)(C(=O)N2CCc3ncc(C(F)(F)F)cc3C2)C1 [Example 20, Formic acid salt]
reported: 3.98 nM
--
molecule: CO[C@@H]1COCC[C@@H]1N[C@@H]1CC[C@](CCCNC(=O)[C@H]2CC[C@H](NC(=O)CCCO[C@H]3CC[C@@H](OCCNC(=O)[C@H]4CC(=O)N(C)[C@@H]4c4cccnc4)CC3)CC2)(C(=O)N2CCc3ncc(C(F)(F)F)cc3C2)C1 [Example 5]
reported: 0.158 nM

----------
Target: human alpha1 nicotinic acetylcholine (nACh) receptor (Homo sapiens, UniProt P02708+Q07001)
Sequence (P02708 21-457): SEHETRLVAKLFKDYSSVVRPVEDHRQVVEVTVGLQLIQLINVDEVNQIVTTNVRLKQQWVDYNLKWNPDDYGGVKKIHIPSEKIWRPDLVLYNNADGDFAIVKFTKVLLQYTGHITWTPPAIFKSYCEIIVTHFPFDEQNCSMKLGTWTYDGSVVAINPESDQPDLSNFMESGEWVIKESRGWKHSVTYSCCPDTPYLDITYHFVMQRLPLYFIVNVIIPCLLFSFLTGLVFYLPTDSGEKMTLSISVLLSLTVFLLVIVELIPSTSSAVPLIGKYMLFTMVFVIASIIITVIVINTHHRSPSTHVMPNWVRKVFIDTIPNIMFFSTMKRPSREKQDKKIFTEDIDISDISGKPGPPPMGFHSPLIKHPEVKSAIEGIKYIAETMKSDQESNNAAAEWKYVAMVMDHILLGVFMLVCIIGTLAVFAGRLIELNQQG
Sequence (P11230 24-501 partner): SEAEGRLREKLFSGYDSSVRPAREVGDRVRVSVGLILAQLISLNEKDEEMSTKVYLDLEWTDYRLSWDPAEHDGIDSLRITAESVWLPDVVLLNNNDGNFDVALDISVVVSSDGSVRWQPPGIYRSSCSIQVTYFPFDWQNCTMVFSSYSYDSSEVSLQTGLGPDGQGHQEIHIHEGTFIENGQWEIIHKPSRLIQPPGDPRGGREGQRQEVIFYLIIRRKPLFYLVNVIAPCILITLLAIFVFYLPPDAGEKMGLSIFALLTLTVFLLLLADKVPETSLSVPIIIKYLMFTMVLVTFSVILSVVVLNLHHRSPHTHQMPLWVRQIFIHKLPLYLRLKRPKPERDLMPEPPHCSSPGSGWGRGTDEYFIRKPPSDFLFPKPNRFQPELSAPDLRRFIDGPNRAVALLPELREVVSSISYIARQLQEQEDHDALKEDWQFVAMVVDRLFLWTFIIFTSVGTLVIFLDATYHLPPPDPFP
Sequence (Q07001 22-517): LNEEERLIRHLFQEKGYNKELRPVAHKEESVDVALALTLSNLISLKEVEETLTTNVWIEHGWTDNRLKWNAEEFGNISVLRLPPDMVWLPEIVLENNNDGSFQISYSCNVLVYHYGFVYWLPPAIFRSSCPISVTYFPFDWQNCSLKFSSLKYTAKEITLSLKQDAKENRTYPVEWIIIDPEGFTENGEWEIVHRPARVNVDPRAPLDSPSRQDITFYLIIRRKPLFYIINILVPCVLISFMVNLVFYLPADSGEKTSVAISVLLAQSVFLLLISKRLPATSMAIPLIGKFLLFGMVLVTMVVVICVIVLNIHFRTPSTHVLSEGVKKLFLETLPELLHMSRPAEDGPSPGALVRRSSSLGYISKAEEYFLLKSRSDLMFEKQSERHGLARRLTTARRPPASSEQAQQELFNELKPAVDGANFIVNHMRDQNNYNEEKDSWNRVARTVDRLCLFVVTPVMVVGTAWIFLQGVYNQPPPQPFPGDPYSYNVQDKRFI
Test: Nicotinic Acetylcholine Receptor Antagonism Assay (IONFlux automated patch clamp)
Format: cell-based
Settings: maximum percentage antagonism at Maximum Concentration of Compound Tested 100 μM; read-out: Maximum Response (%)
Structures can show the parent of a compound that is named as a salt.
recordedEndpoint: Emax at 100 µM

compound: CO[C@@H]1COCC[C@@H]1N[C@@H]1CC[C@](COCCNC(=O)[C@H]2CC[C@H](NC(=O)CCCO[C@H]3CC[C@H](OCCNC(=O)[C@H]4CC(=O)N(C)[C@@H]4c4cccnc4)CC3)CC2)(C(=O)N2CCc3ncc(C(F)(F)F)cc3C2)C1 [Example 11]
reported: 39%
//
compound: CO[C@@H]1COCC[C@@H]1N[C@@H]1CC[C@](CCCNC(=O)[C@H]2CC[C@@H](NC(=O)CCCO[C@H]3CC[C@H](OCCNC(=O)[C@H]4CC(=O)N(C)[C@@H]4c4cccnc4)CC3)CC2)(C(=O)N2CCc3ncc(C(F)(F)F)cc3C2)C1 [Example 6, Formic acid salt]
reported: 31%
//
compound: CO[C@@H]1COCC[C@@H]1N[C@@H]1CC[C@](CCCNC(=O)[C@H]2CC[C@H](NC(=O)CCCO[C@H]3CC[C@H](OCCNC(=O)[C@H]4CC(=O)N(C)[C@@H]4c4cccnc4)CC3)CC2)(C(=O)N2CCc3ncc(C(F)(F)F)cc3C2)C1 [Example 3]
reported: 38%
//
compound: CO[C@@H]1COCC[C@@H]1N[C@@H]1CC[C@](CCNC(=O)[C@H]2CC[C@H](NC(=O)CCCO[C@H]3CC[C@H](OCCNC(=O)[C@H]4CC(=O)N(C)[C@@H]4c4cccnc4)CC3)CC2)(C(=O)N2CCc3ncc(C(F)(F)F)cc3C2)C1 [Example 8]
reported: 48%
